Overview of recorded TGI for various molecules
- System: TK-10 renal
- procedure-text: NCI tumour cell line growth inhibition, 48 h

molecule=COc1cc(/C=C/C(=O)CC(=O)/C=C/c2ccc(OC(=O)CCNC34CC5CC(CC(C5)C3)C4)c(OC)c2)ccc1OC(=O)CCNC12CC3CC(CC(C3)C1)C2 result="22.6 µM"
molecule="C/C=C/C/C=C/CCC(=O)C1OC1C(N)=O (stereo not drawn)" result="25.9 µM"
molecule="C[N+]1(C)C2CCC1CC(OC(=O)C(CO)c1ccccc1)C2 (stereo not drawn)" result="> 100 µM"

Then there is this molecule:
Entry CC(=O)Oc1cc2c(=O)oc3c(OC(C)=O)c(OC(C)=O)c(OC(C)=O)c4c(=O)oc(c1OC(C)=O)c2c34 , TGI reported as > 100 µM

---

- Tested on: NCI-H226 lung
- procedure-text: NCI tumour cell line growth inhibition, 48 h
*1 amine or outer side, *2 acyl side, *3 side chain or, on linkers, in order; H or OH if unused. Where a SMILES comes first, the peptide text is derived from it. CO = O=C([*:1])[*:2]
readout-name: GI50

# annotated cases, reported GI50 shown
molecule="CC(C)C(NC(=O)C(CCCN=C(N)N)NC(=O)NC(Cc1ccccc1)C(=O)O)C(=O)NC(C=O)CCCN=C(N)N (stereo not drawn) ({Phe-CO}-Arg-Val-Arg-aldehyde; configuration not given here)" experimental_system="NCI-H226 lung" readout_name=GI50 result="> 5 µM"
molecule=CC(=O)[CH-]C(C)=O.CC(=O)[CH-]C(C)=O.CC(=O)[CH-]C(C)=O.[Cl-].[Hf+4] experimental_system="NCI-H226 lung" readout_name=GI50 result="> 100 µM"
molecule=CCCN1C(=O)/C(=C/c2ccc(O)cc2)SC1=Nc1ccccc1 experimental_system="NCI-H226 lung" readout_name=GI50 result="30.3 µM"

Then there is this molecule:
Entry COc1cc(-c2ccc(-[n+]3nc(-c4ccc([N+](=O)[O-])cc4)nn3-c3ccc([N+](=O)[O-])cc3)c(OC)c2)ccc1-[n+]1nc(-c2ccc([N+](=O)[O-])cc2)nn1-c1ccc([N+](=O)[O-])cc1 , GI50 reported as 12.1 µM

---

Overview of recorded TGI for various compounds
- Tested on: HT29 colon
- procedure-text: NCI tumour cell line growth inhibition, 48 h

# annotated cases, reported TGI shown
compound=COc1ccc2c(c1)C(=O)c1c-2c(N2CCN(C(=O)CN(C)C)CC2)nc2ccccc12 experimental_system="HT29 colon" result="12.7 µM"
compound=CCOC(=O)CCc1c(C)c2ccc(O)cc2oc1=O experimental_system="HT29 colon" result="> 100 µM"
compound="COCC1OCCN1C (centres undefined)" experimental_system="HT29 colon" result="> 100 µM"

Then there is this compound:
Lab entry: HT29 colon assay, compound CCn1cc(C(=O)O)c(=O)c2cc(F)c(N3CCN(Cn4c(O)c(N=NC(=O)c5ccncc5)c5cc(Cl)ccc54)CC3)cc21 , TGI = > 100 µM

---

- System: NCI-H226 lung
- procedure-text: NCI tumour cell line growth inhibition, 48 h
Overview of recorded TGI for various molecules
Please reply with the bare figure in µM and do not write the unit itself.

molecule=COc1ccc2c(c1)-c1c(c3ccccc3n1CCN1CCCCC1)CC2 readout_name=TGI quantitative_readout=37.5

Then there is this molecule:
Entry C[C@@H](Oc1cc(-c2cnn(C3CC4(CCNCC4)C3)c2)cnc1N)c1c(F)ccc(Cl)c1Cl , TGI reported as 17.5

---

- Test system: DU-145 prostate
- procedure-text: NCI tumour cell line growth inhibition, 48 h
Overview of recorded TGI for various compounds

# annotated cases, reported TGI shown
compound="O=C1CS(=O)(=O)C(c2cccc(Oc3ccccc3)c2)N1c1cccc(Cl)c1Cl (stereo not given)" readout_name=TGI result="> 100 µM"
compound=CN(C)c1ccc2[nH]c(O)c(C=Nc3ccc(S(N)(=O)=O)cc3)c2c1 readout_name=TGI result="> 25 µM"
compound="CC(=O)O[C@H]1C(=O)[C@@]2(C)[C@H]([C@H](OC(=O)c3ccccc3)[C@]3(O)C[C@H](OC(=O)[C@H](OC(=O)CCC(=O)OC4CCC(S/N=C(N)/N=C(\\N)N(C)C)CC4)[C@@H](NC(=O)c4ccccc4)c4ccccc4)C(C)=C1C3(C)C)[C@]1(OC(C)=O)CO[C@@H]1C[C@@H]2O (stereo not given in full)" readout_name=TGI result="> 50 µM"
compound=O=c1oc2ccccc2c(O)c1C(c1ccc2ccccc2c1)c1c(O)c2ccccc2oc1=O readout_name=TGI result="> 100 µM"
compound=C=C1C(=O)O[C@H]2[C@H]1CC/C(COC(=O)NCCc1c[nH]c3ccccc13)=C\CC[C@@]1(C)O[C@@H]21 readout_name=TGI result="2.68 µM"

Entry Nc1c(C(=O)Nc2cccc3ccccc23)sc2nc3c(cc12)CCCCC3 , TGI reported as > 50 µM

Entry Fc1ccc(Nc2ccc3cc(OCCCN4CCOCC4)ccc3n2)cc1F , TGI reported as > 100 µM

Entry CCC(C)C(NC(=O)C(CCCCN)NC(=O)C(NC(=O)C(CCC(N)=O)NC(=O)C(CCCNC(=N)N)NC(C)=O)C(C)CC)C(=O)NC(Cc1c[nH]c2ccccc12)C(=O)NC(Cc1ccccc1)C(=O)NC(CCC(N)=O)C(=O)NC(CC(N)=O)C(=O)NC(CCCNC(=N)N)C(=O)NC(CCCNC(=N)N)C(=O)NC(CCSC)C(=O)NC(CCCCN)C(=O)NC(Cc1c[nH]c2ccccc12)C(=O)NC(CCCCN)C(=O)NC(CCCCN)C(N)=O (stereo not given) , TGI reported as > 50 µM

Entry CCOP(=O)(CCC(O)CNc1nc(N)nc(Cl)c1N=Nc1ccc(Cl)cc1)OCC (stereo not given) , TGI reported as > 100 µM

Entry O=C(NN1C(=O)/C(=C/c2ccc(Cl)cc2)N=C1c1ccccc1)c1c(Cl)c(Cl)c(Cl)c(Cl)c1-c1nc2ccccc2[nH]1 , TGI reported as 61.9 µM

Entry O=S(=O)(NCCNc1cc(-c2cn(-c3ccccc3)nc2-c2cccc(O)c2)ccn1)c1ccc(F)cc1 , TGI reported as 16.8 µM

Entry CCC(=O)Nc1ccc2c(c1)CN1C(=O)c3ccccc3C1=N2 , TGI reported as > 100 µM

Entry O=C(O)c1ccccc1C(=O)OCC1CCCN2CCCCC12 (stereo not given) , TGI reported as > 100 µM

Entry CO[C@H]1C[C@@H]2CC[C@@H](C)[C@@](O)(O2)C(=O)C(=O)N2CCCC[C@H]2C(=O)O[C@H]([C@H](C)C[C@@H]2CC[C@@H](OC(=O)C(C)(CO)CO)[C@H](OC)C2)CC(=O)[C@H](C)/C=C(\C)[C@@H](O)[C@@H](OC)C(=O)[C@H](C)C[C@H](C)/C=C/C=C/C=C/1C , TGI reported as > 100 µM

Entry O=C(Nc1cccc(-c2nc3ccccc3[nH]2)c1)c1cccc(NC(=O)c2ccco2)c1 , TGI reported as 3.15 µM

---

- Tested on: MCF7 breast
- procedure-text: NCI tumour cell line growth inhibition, 48 h
readout-name: TGI

# annotated cases, reported TGI shown
compound="C/C(=C\\c1csc(C)n1)[C@@H]1C[C@@H]2O[C@]2(C)CCC[C@H](C)[C@H](O)[C@@H](C)C(=O)C(C)(C)[C@@H](O)CC(=O)O1 (tested in a mixture with another compound)" result="> 1 µM"
compound=CN1CCC23c4ccccc4NC1C21CCN(C)C3Nc2ccccc21 result="> 375 µM"
compound="N=C(N)C(N=Nc1ccccc1)C(=N)N (stereo not given)" result="> 100 µM"

Entry [N-]=[N+]=Nc1cc(=O)n(-c2ccccc2)c(=O)n1-c1ccccc1 , TGI reported as > 100 µM

Entry CC1=C/C(=N\N(C)C)C(C(O)(C(F)(F)F)C(F)(F)F)C(C)(C)C1 (stereo not given) , TGI reported as > 100 µM

Entry COc1c(C(=O)O)cccc1-c1cccc(C(=O)NCCN(CCNC(=O)c2cccc(-c3cccc(C(=O)O)c3OC)c2OC)CCNC(=O)c2cccc(-c3cccc(C(=O)O)c3OC)c2OC)c1OC , TGI reported as > 100 µM

Entry COc1cc2c3c(n(CCCn4ccnc4)c(=O)c2cc1OC)-c1ccccc1C3=O , TGI reported as > 43.4 µM

Entry CN=C1Nc2ccccc2C(=S)N2CSC[C@@H]12 , TGI reported as > 100 µM

Entry S=C(NCCCCCCNC(=S)Nc1c2ccccc2nc2ccccc12)Nc1c2ccccc2nc2ccccc12 , TGI reported as > 100 µM

Entry OC(c1ccc(-c2ccccc2)cc1)(c1ccc(-c2ccccc2)cc1)c1ccc(-c2ccccc2)cc1 , TGI reported as > 100 µM

---

- Tested on: MOLT-4 leukemia
- procedure-text: NCI tumour cell line growth inhibition, 48 h
Overview of recorded TGI for various compounds

# annotated cases, reported TGI shown
compound=O=C(n1[nH]c(=O)n(-c2ccc([N+](=O)[O-])cc2)c1=O)C(Cl)(Cl)Cl result="> 75 µM"
compound="CC(=O)C1(c2ccccc2)CCCN(C)CC1 (stereo unspecified)" result="> 100 µM"
compound=CC1=Cc2cc3[n-]c(cc4nc(cc5[n-]c(cc1n2)c(C)c5CCC(=O)O)C(CCC(=O)O)=C4C)cc3C.[Cu+2] result="> 88.7 µM"
compound=Cn1cc(C(=O)/C(Cl)=C(\Cl)C(=O)O)c2ccccc21 result="> 100 µM"
compound="C/C(=N\\[N+](C)(C)C)C(c1ccccc1)C1(c2ccccc2)C(c2ccccc2)=C1c1ccccc1 (stereo unspecified)" result="> 100 µM"

Then there is this compound:
Lab entry: MOLT-4 leukemia assay, compound CCSc1nc(=S)[nH]c2[nH]ncc12 , TGI = > 100 µM

// data source = PubChem BioAssay (NCI)
